Tested on: UACC-62 melanoma
Experiment: NCI tumour cell line growth inhibition, 48 h
Below, each of the compounds is paired with its reported GI50 value.

Known GI50 results, listed for orientation:
1. O=C(N/N=C\c1cc(Cl)ccc1O)N/N=C/c1cc(Cl)ccc1O: 0.918 µM
2. O=C(/C=C/c1cccs1)Nc1ncc(Cc2ccccc2F)s1: 0.207 µM
3. O=C(O)CCN1C(=O)/C(=C/C(Cl)=C/c2ccccc2)SC1=S: 1.52 µM
4. CCNC1=CC(=O)c2ncccc2C1=O: 1.06 µM
5. C=C1C(=O)O[C@H]2[C@H](OC(C)=O)[C@@H](C)CCC/C(C)=C/CC[C@]3(CO3)[C@H](O)C[C@@H]12: 12.7 µM

// Cc1ccc(Nc2ccnc(Nc3cccc(C(N)=O)c3)n2)cc1O : GI50 value = 7.08 µM

// CCOc1ccc(N2C(N)=NC(N)=NC2(C)C)cc1 : GI50 value = 43.8 µM

// NC(=O)c1ccc(-c2c3ccccc3cc3c2ccc2ccccc23)cc1 : GI50 value = 4.32 µM

// Nc1ccccc1C#Cc1ccccc1C#CCCCCO : GI50 value = 11.9 µM

// COc1cc(Nc2ncc(-c3ccccc3)o2)cc(OC)c1OC : GI50 value = 2.24 µM

// COc1cc([N+](=O)[O-])c2ncccc2c1O : GI50 value = 1.94 µM

// COc1cc(C=NCC(=O)CSC(c2ccccc2)c2ccccc2)cc(OC)c1OC : GI50 value = 19.2 µM

----------
Below, each of the compounds is paired with its reported TGI value.
Test system: K-562 leukemia
Test: NCI tumour cell line growth inhibition, 48 h
Answer with a number only, understood to be in µM.

Known TGI results, listed for orientation:
1. CC(=O)OCC1OC(O[C@@H]2C[C@H]3C(C)(C)[C@H](OC(C)=O)CC[C@]3(C)[C@H]3CC[C@@H]4[C@]5(CC[C@@]4(C)[C@@]32C)O[C@@H]([C@H](O)C(C)(C)O)C[C@@H]5C)C(O)C(O)C1O (stereo partly specified): 25.1
2. Cc1cc(C(C)(C)C)c(OCCCN2CCOCC2)c(C(C)(C)C)c1: 33.3
3. C=C1C(=O)O[C@H]2[C@H](OC(C)=O)[C@@H](C)CCC/C(C)=C/CC[C@]3(CO3)[C@H](O)C[C@@H]12: 5.06
4. COc1ccc(C2CC(C)=Nc3c([nH]c(=S)[nH]c3=O)N2)cc1 (stereo unspecified): 34.4

// CN(C)CCCN1C(=O)N(CCCN(C)C)c2c3cc(O)ccc3nc3c([N+](=O)[O-])ccc1c23 : TGI value = 23.7

// O=C1C(=O)C(CCCO)(CCCO)CCCCCCCCC1(CCCO)CCCO : TGI value = 69.6

// O=C1C=Cc2noc3cccc1c23 : TGI value = 9.65

// Brc1ccc2[nH]cc(-c3nc(-c4c[nH]c5ccncc45)cs3)c2c1 : TGI value = 3.38

// CN(NC(=O)/C(=C/C=C/c1ccccc1)NC(=O)c1ccccc1)C1=C(Cl)C(=O)[N+](c2ccccc2)=CC1 : TGI value = 49.9

----------
Test system: SK-MEL-2 melanoma
Test: NCI tumour cell line growth inhibition, 48 h
Reported Metric: TGI

Known TGI results, listed for orientation:
1. COc1ccc(C2=C(N)c3ccccc3C2=O)cc1: > 100 µM
2. CCn1c(-c2cc3ccccc3cc2OC(=O)c2ccccc2)n[nH]c1=S: > 50 µM
3. CC1(C)CN=C(c2ccc3ccccc3c2O)N1: > 100 µM
4. Cc1ccc(Nc2ccnc(Nc3cccc(C(N)=O)c3)n2)cc1O: > 25 µM
5. COS(=O)CCOC(=O)c1ccccc1SSc1ccccc1C(=O)OCCS(=O)OC (stereo unspecified): > 100 µM
6. C=C(Cl)C(=C)CCC(Cl)C(C)(C)Cl (stereo unspecified): > 100 µM
7. N#CCc1nc2c(s1)C(=O)c1ccccc1C2=O: 35.6 µM
8. CCOC(=O)Cn1c(C)nc2nn(Cc3ccccc3)cc2c1=O: > 100 µM

// O=c1oc2ccccc2cc1-c1nc2ccccc2s1 : TGI value = 60.2 µM

// OCC1=C[C@@](COCc2ccccc2)(OCc2ccccc2)[C@@H](OCc2ccccc2)[C@@H]1OCc1ccccc1 : TGI value = 39.3 µM

// CC(C)S(=O)(=O)n1c(N)nc2ccc(/C(=N/O)c3ccccc3)cc21 : TGI value = 54.1 µM

----------
System: HCT-116 colon
Test: NCI tumour cell line growth inhibition, 48 h
Reported Metric: log10 of TGI (log10 of the value in µM)
Parameter value (number): base-10 log of TGI in µM.

// CC(=O)OCC1OC(O[C@@H]2C[C@H]3C(C)(C)[C@H](OC(C)=O)CC[C@]3(C)[C@H]3CC[C@@H]4[C@]5(CC[C@@]4(C)[C@@]32C)O[C@@H]([C@H](O)C(C)(C)O)C[C@@H]5C)C(O)C(O)C1O (stereo partly specified) : log10 of TGI value = 1.18

// CC(C)S(=O)(=O)n1c(N)nc2ccc(/C(=N/O)c3ccccc3)cc21 : log10 of TGI value = 1.60

// CCNC1=CC(=O)c2ncccc2C1=O : log10 of TGI value = 0.99

// COc1cccc(C2c3cc4c(cc3OC(N3CCOCC3)C2C)OCO4)c1 (stereo unspecified) : log10 of TGI value = 1.54

// C=C1C(=O)OC2C1CC1OC2C(C)CCC/C(C)=C\CCC1(C)O (stereo unspecified) : log10 of TGI value = 1.61

// Cc1cc(C(=O)NCCN(C)C)c2nc3ccccc3nc2c1 : log10 of TGI value = 1.21

// COc1cccc2c1C(=O)c1c(O)c3c(c(O)c1C2=O)C[C@](O)(C(=O)CO)CC3OC1CC(N)C(OC2CCCCO2)C(C)O1 (stereo partly specified) : log10 of TGI value = 0.40

----------
Tested on: SF-268 CNS
Test: NCI tumour cell line growth inhibition, 48 h
Reported Metric: GI50

Known GI50 results, listed for orientation:
1. COc1ccccc1OCC(O)CO (stereo not given): > 100 µM
2. COCCn1cc(-c2csc(-c3c[nH]c4ccc(F)cc34)n2)c2cccnc21: 7.67 µM
3. NC(=NC1C2CC3CC(C2)CC1C3)Nc1ccc(I)cc1 (stereo not given): 4.52 µM
4. CCCCCCCCCC[C@@H](O)[C@H]1CC[C@@H]([C@H]2CC[C@H]([C@H](O)CCCCCCCCCC[C@@H]3CC(CC(C)=O)C(=O)O3)O2)O1 (stereo not given in full): 27.4 µM

We now examine a further compound.
// COCCOCCOCCOCCOc1ccc2c(c1)C(=O)c1nc3ncccc3c(=O)n1-2 : GI50 value = 1.54 µM

----------
Tested on: SK-MEL-28 melanoma
Experiment: NCI tumour cell line growth inhibition, 48 h
Below, each of the molecules is paired with its reported TGI value.

Known TGI results, listed for orientation:
1. COc1ccc2c3c([nH]c2c1)[C@H]1C[C@H]2[C@H](C[C@@H](O)[C@H](OC)[C@H]2C(=O)O)CN1CC3: > 100 µM
2. O=C(O)CCN1C(=O)/C(=C/C(Cl)=C/c2ccccc2)SC1=S: 5.33 µM
3. CCN(CC)c1ccc(/C=N\NC(=O)c2cccc(Nc3ccnc(C(F)(F)F)c3)c2)c(O)c1: > 20.8 µM
4. C=C(C)[C@@H]1CC[C@]2(C#N)CC[C@]3(C)[C@H](CC[C@@H]4[C@@]5(C)CCCNC(C)(C)[C@@H]5CC[C@]43C)[C@@H]12: 3.5 µM
5. c1ccc(CN(Cc2ccccn2)Cn2cccn2)nc1: > 100 µM

Known value: SK-MEL-28 melanoma TGI of the molecule CC(C)(C)OC(=O)N[C@@H](Cc1ccccc1)C(=O)N1CC[C@@H](C(=O)N2[C@H]3CC4CC[C@@]3(CS2(=O)=O)C4(C)C)N1 equals > 100 µM

Known value: SK-MEL-28 melanoma TGI of the molecule COCCOC(=O)CCn1cc(F)c(=O)[nH]c1=O equals > 150 µg/mL

Known value: SK-MEL-28 melanoma TGI of the molecule CCOc1cc(C=Nc2ccc(Oc3ccc(Cl)cc3)c(Cl)c2)ccc1O equals 63.1 µM

Known value: SK-MEL-28 melanoma TGI of the molecule O=C(O)c1oc2ccc([N+](=O)[O-])c3c2c1CCC3 equals > 100 µM

Known value: SK-MEL-28 melanoma TGI of the molecule CCOC(=O)C1C2C1C1C(C(=O)OCC)C21 (centres undefined) equals > 100 µM

Known value: SK-MEL-28 melanoma TGI of the molecule O=C(O)c1c(Cl)c(Cl)c(Cl)c(Cl)c1-c1c2cc(I)c(=O)c(I)c-2oc2c(I)c(O)c(I)cc12 equals 73 µM

Known value: SK-MEL-28 melanoma TGI of the molecule CC1Oc2c(c(O)cc3oc(=O)cc(-c4ccccc4)c23)C(=O)C1C (centres undefined) equals > 100 µM
